Biological target: T1, His-SND1 (16-339), SN1/2 domains, wild type (human, UniProt Q7KZF4 16-339)
T1 construct: also called His6-SND1 harboring the SN1/2 domains; not shown: N-terminal His tag (His6, His8 or His) with TEV site, pQlink vector
T1 sequence: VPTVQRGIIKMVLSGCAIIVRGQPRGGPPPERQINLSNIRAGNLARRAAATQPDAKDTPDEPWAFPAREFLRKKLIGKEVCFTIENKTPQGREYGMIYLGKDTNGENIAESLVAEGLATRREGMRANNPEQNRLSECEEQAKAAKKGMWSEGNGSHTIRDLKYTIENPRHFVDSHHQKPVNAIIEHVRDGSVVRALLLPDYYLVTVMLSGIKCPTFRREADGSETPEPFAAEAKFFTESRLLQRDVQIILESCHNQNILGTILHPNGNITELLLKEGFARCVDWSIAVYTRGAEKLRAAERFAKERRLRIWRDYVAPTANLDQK
Test: GST pull-down on glutathione resin, SDS-PAGE, Coomassie blue; normalised percentage of binding, mean±SEM of three experiments
Quantity: % Maximum binding (%)
Answers are plain numbers, in %.

Binder	Units symbol	% Maximum binding
GST-MTDH (364-582) E400R (other, not shown: N-terminal GST tag with TEV site, pQlink vector) YQWDVSRNQPYIDDEWSGLNGLSSADPNSDWNAPAERWGNWVDEERASLLKSQEPIPDDQKVSDDDKEKGEGALPTGKSKKKKKKKKKQGEDNSTAQDTEELEKEIREDLPVNTSKTRPKQEKAFSLKTISTSDPAEVLVKNSQPIKTLPPATSTEPSVILSKSDSDKSSSQVPPILQETDKSKSNTKQNSVPPSQTKSETSWESPKQIKKKKKARRET	%	70
GST-MTDH (364-582) W401D (other, not shown: N-terminal GST tag with TEV site, pQlink vector) YQWDVSRNQPYIDDEWSGLNGLSSADPNSDWNAPAEEDGNWVDEERASLLKSQEPIPDDQKVSDDDKEKGEGALPTGKSKKKKKKKKKQGEDNSTAQDTEELEKEIREDLPVNTSKTRPKQEKAFSLKTISTSDPAEVLVKNSQPIKTLPPATSTEPSVILSKSDSDKSSSQVPPILQETDKSKSNTKQNSVPPSQTKSETSWESPKQIKKKKKARRET	%	46

Next binder, % Maximum binding to be filled in.
Which measured % Maximum binding value corresponds to GST-MTDH (364-582) N395A (other, not shown: N-terminal GST tag with TEV site, pQlink vector) YQWDVSRNQPYIDDEWSGLNGLSSADPNSDWAAPAEEWGNWVDEERASLLKSQEPIPDDQKVSDDDKEKGEGALPTGKSKKKKKKKKKQGEDNSTAQDTEELEKEIREDLPVNTSKTRPKQEKAFSLKTISTSDPAEVLVKNSQPIKTLPPATSTEPSVILSKSDSDKSSSQVPPILQETDKSKSNTKQNSVPPSQTKSETSWESPKQIKKKKKARRET ?
84

meta.source: patent US20190336574A1
